Origin of values: PubChem BioAssay AID652067

Parameter: activation. Scope: all listed entries.
tested on: DAF-12 nuclear receptor (Haemonchus contortus); assay: hcDAF-12 driven luciferase reporter activation – cell-based, luminescence, HEK293, lit1-tk-luc reporter, primary screen (AID 652067); conditions: HEK293 hcDAF-12 lit1-tk-luc reporter, at 6.8 µM, hits give high values, 0% DMSO, 100% Δ7-dafachronic acid;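 further: 100% = response to 3 µM Δ7-dafachronic acid high control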
Hit rate of the full screen: of about 370,000 compounds, about 5,400 (1.5%) were called active. The sample holds actives, similar compounds and a random draw of the others, so the mix is not that of the screen.
attributeMeasured: activation (%)

{"columns": ["structureSmiles", "readoutNumber"],
 "data": [
  ["Cc1cc(C(F)(F)F)c(C#N)c(SCC(=O)NC2CC2)n1", -2.02],
  ["CCN(CC)c1nc(-c2ccccc2)cc(C(F)(F)F)c1C#N", -1.43],
  ["COC(=O)[C@@]12CCCCC=C1N(CCc1ccc(Cl)cc1)C(=O)[C@H]2CC(=O)NCc1ccc(OC)c(OC)c1", -2.23],
  ["C#CCNC(=O)C[C@H]1C[C@@]2(C(=O)OC)C(=C[C@H](C(C)C)O[C@@H]2C2CC2)N(Cc2ccco2)C1=O", -0.47],
  ["COc1ccc(C2=Nc3cc(C)ccc3OC2)cc1", 12.7]
]}
